Target: GSK3α (Homo sapiens)
Sequence (P49840 whole entry): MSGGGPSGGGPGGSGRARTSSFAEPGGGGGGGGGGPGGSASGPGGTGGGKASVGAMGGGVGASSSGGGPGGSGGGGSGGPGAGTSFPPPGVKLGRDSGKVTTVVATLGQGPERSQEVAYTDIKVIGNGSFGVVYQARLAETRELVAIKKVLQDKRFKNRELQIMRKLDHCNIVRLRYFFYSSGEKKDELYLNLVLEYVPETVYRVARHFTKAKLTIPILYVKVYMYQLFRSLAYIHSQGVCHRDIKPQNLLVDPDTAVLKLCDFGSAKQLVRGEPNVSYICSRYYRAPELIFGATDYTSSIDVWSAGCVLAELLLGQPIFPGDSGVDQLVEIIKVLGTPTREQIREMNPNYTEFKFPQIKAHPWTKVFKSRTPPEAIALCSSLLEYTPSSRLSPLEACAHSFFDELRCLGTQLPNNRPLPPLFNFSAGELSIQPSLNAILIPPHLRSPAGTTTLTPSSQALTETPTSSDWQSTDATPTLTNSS
Assay: GSK 3α enzyme inhibition (FRET), Method 2
Assay type: biochemical
Settings: Table 4a2, different laboratory
pIC50: −log10 of the molar value.
Reported pIC50 is given for each of the following compounds.
measure: pIC50

{"compound structure": "C#Cc1cc(Nc2nccc(Oc3ccc(NC(=O)Nc4cc(C(C)(C)OC)nn4-c4ccc(C)cc4)c4ccccc34)n2)cc(C(=O)NCCN2CCOCC2)c1", "tested on": "GSK3α (Homo sapiens)", "operator symbol": "=", "readout number": 6.12}
{"compound structure": "COc1cc(Nc2cc(Oc3ccc(NC(=O)Nc4cc(C(C)(C)C)nn4-c4ccc(C)cc4)c4ccccc34)ccn2)cc(C(=O)NCCN2CCOCC2)c1", "tested on": "GSK3α (Homo sapiens)", "operator symbol": "=", "readout number": 5.16}
{"compound structure": "C#Cc1cc(Nc2nccc(Oc3ccc(NC(=O)Nc4cc(C(C)(C)C)nn4-c4ccc(C)cc4)c4ccccc34)n2)cc(C(=O)NC(C)(C)CN2CCOCC2)c1", "tested on": "GSK3α (Homo sapiens)", "operator symbol": "=", "readout number": 4.92}
{"compound structure": "C#Cc1cc(Nc2nccc(Oc3ccc(NC(=O)Nc4cc(C(C)C)nn4-c4ccc(C)cc4)c(F)c3F)n2)cc(C(=O)NCCN2CCOCC2)c1", "tested on": "GSK3α (Homo sapiens)", "operator symbol": "=", "readout number": 6.76}
{"compound structure": "C#Cc1cc(Nc2nccc(Oc3ccc(NC(=O)Nc4cc(C(F)(F)C(F)(F)F)nn4-c4ccc(C)cc4)c4ccccc34)n2)cc(C(=O)NCCN2CCOCC2)c1", "tested on": "GSK3α (Homo sapiens)", "operator symbol": "≤", "readout number": 4.92}
{"compound structure": "C#Cc1cc(Nc2nccc(Oc3ccc(NC(=O)Nc4cc(C(C)(C)C(F)(F)F)nn4-c4ccc(C)cc4)c4ccccc34)n2)cc(C(=O)NCCN2CCOCC2)c1", "tested on": "GSK3α (Homo sapiens)", "operator symbol": "=", "readout number": 5.75}
{"compound structure": "COc1ccc(-n2nc(C(C)C)cc2NC(=O)Nc2ccc(Oc3ccnc(Nc4cc(OC)cc(C(=O)NCCN5CCOCC5)c4)n3)c3ccccc23)cc1", "tested on": "GSK3α (Homo sapiens)", "operator symbol": "=", "readout number": 5.14}
{"compound structure": "COc1cc(C(=O)NCCN2CCOCC2)ccc1Nc1nccc(Oc2ccc(NC(=O)Nc3cc(C(C)C)nn3-c3ccc(C)cc3)c3ccccc23)n1", "tested on": "GSK3α (Homo sapiens)", "operator symbol": "≤", "readout number": 4.88}
{"compound structure": "COc1cc(Nc2nccc(Oc3ccc(NC(=O)Nc4cc(C5CC5)nn4-c4ccc(C)cc4)c4ccccc34)n2)cc(C(=O)NCCN2CCOCC2)c1", "tested on": "GSK3α (Homo sapiens)", "operator symbol": "≤", "readout number": 4.88}
{"compound structure": "C#Cc1cc(Nc2nccc(Oc3ccc(NC(=O)Nc4cc(C(C)(C)C)nn4-c4ccc(OC)cc4)c4ccccc34)n2)cc(C(=O)N[C@@H](C)COC)c1", "tested on": "GSK3α (Homo sapiens)", "operator symbol": "=", "readout number": 5.10}
{"compound structure": "C#Cc1cc(Nc2nccc(Oc3ccc(NC(=O)Nc4cc(C(C)C)nn4-c4ccc(C)cc4)c(Cl)c3Cl)n2)cc(C(N)=O)c1", "tested on": "GSK3α (Homo sapiens)", "operator symbol": "≤", "readout number": 4.82}
{"compound structure": "C#Cc1cc(Nc2nccc(Oc3ccc(NC(=O)Nc4cc(C(C)(C)C)nn4-c4ccc(OC)nc4)c4ccccc34)n2)cc(C(=O)NCCN2CCOCC2)c1", "tested on": "GSK3α (Homo sapiens)", "operator symbol": "=", "readout number": 6.40}
{"compound structure": "COc1cc(Nc2nccc(Oc3ccc(NC(=O)Nc4cc(C(C)C)nn4-c4ccc(C)cc4)c4ccccc34)n2)cc(C(=O)NCCN2CCOCC2)c1", "tested on": "GSK3α (Homo sapiens)", "operator symbol": "≤", "readout number": 4.88}
{"compound structure": "Cc1ccc(-n2nc(C(C)C)cc2NC(=O)Nc2ccc(Oc3ccnc(Nc4cc(C(=O)NCCN5CCOCC5)cc(C(F)(F)F)c4)n3)c3ccccc23)cc1", "tested on": "GSK3α (Homo sapiens)", "operator symbol": "=", "readout number": 4.92}
{"compound structure": "C#Cc1cc(Nc2nccc(Oc3ccc(NC(=O)Nc4cc(C(C)(C)C)nn4-c4ccc(C)cc4)c4ccccc34)n2)cc(C(=O)NCCN2CCOCC2)c1", "tested on": "GSK3α (Homo sapiens)", "operator symbol": "=", "readout number": 5.86}
{"compound structure": "C#Cc1cc(Nc2nccc(Oc3ccc(NC(=O)Nc4cc(C(C)(C)C)nn4-c4ccc(C)cc4)c4ccccc34)n2)cc(C(=O)N[C@@H](C)CN2CCOCC2)c1", "tested on": "GSK3α (Homo sapiens)", "operator symbol": "=", "readout number": 4.98}
{"compound structure": "C#Cc1cc(Nc2nccc(Oc3ccc(NC(=O)Nc4cc(C(C)(C)C#N)nn4-c4ccc(C)cc4)c4ccccc34)n2)cc(C(=O)NCCN2CCOCC2)c1", "tested on": "GSK3α (Homo sapiens)", "operator symbol": "=", "readout number": 5.55}
{"compound structure": "CCc1cc(NC(=O)Nc2ccc(Oc3ccnc(Nc4cc(OC)cc(C(=O)NCCN5CCOCC5)c4)n3)c3ccccc23)n(-c2ccc(C)cc2)n1", "tested on": "GSK3α (Homo sapiens)", "operator symbol": "≤", "readout number": 4.87}
{"compound structure": "C#Cc1cc(Nc2nccc(Oc3ccc(NC(=O)Nc4cc(C(C)(C)C)nn4-c4ccc(N(C)C)cc4)c4ccccc34)n2)cc(C(=O)NCCN2CCOCC2)c1", "tested on": "GSK3α (Homo sapiens)", "operator symbol": "≤", "readout number": 4.90}
{"compound structure": "C#Cc1cc(Nc2nccc(Oc3ccc(NC(=O)Nc4cc(C(C)C)nn4-c4ccc(C)cc4)c(Cl)c3Cl)n2)cc(C(=O)NCCN2CCOCC2)c1", "tested on": "GSK3α (Homo sapiens)", "operator symbol": "=", "readout number": 5.23}
{"compound structure": "C#Cc1cc(Nc2nccc(Oc3ccc(NC(=O)Nc4cc(C(C)(C)C)nn4-c4ccc(OC)cc4)c4ccccc34)n2)cc(C(=O)NCCOC)c1", "tested on": "GSK3α (Homo sapiens)", "operator symbol": "≤", "readout number": 4.86}
{"compound structure": "C#Cc1cc(Nc2nccc(Oc3ccc(NC(=O)Nc4cc(C(C)(C)C)nn4-c4ccc(C)cc4)c4ccccc34)n2)cc(C(=O)N[C@H](C)CN2CCOCC2)c1", "tested on": "GSK3α (Homo sapiens)", "operator symbol": "=", "readout number": 4.93}
{"compound structure": "C#Cc1cc(Nc2nccc(Oc3ccc(NC(=O)Nc4cc(C(C)(C)C)nn4-c4ccc(OC)cc4)c4ccccc34)n2)cc(C(=O)NCCN2CCOCC2)c1", "tested on": "GSK3α (Homo sapiens)", "operator symbol": "=", "readout number": 5.23}
